- Protocol: Fibril dimensions measured from TEM images
- Type: physicochemical
- Stated Conditions: physiological conditions, TEM
Where a SMILES comes first, the peptide text is derived from it. [ ]: non-standard residue; d: D form. Orn = NCCC[C@H](N)C(=O)O
Measured Parameter: h, twist pitch

Task: Supply measured h, twist pitch of CC(=O)N[C@H](C(=O)N[C@H](C(=O)N[C@@H](CCCNC(=N)N)C(=O)N[C@@H](Cc1ccccc1)C(=O)N[C@@H](CCCN)C(=O)N[C@@H](Cc1c[nH]c2ccccc12)C(=O)N[C@@H](CCCN)C(=O)N[C@@H](Cc1ccccc1)C(=O)N[C@@H](CCC(=O)O)C(=O)N[C@H](C(=O)N[C@H](C(N)=O)[C@@H](C)O)[C@@H](C)O)[C@@H](C)O)[C@@H](C)O [Peptide P11-18, CH3CO-T-T-R-F-O-W-O-F-E-T-T-NH2] (Ac-TTRF[Orn]W[Orn]FETT-NH2) in your reply.
Result: 142-236 nm

Task: Answer with the recorded h, twist pitch of CC(=O)N[C@@H](CCC(N)=O)C(=O)N[C@@H](CCC(N)=O)C(=O)N[C@@H](CCCNC(=N)N)C(=O)N[C@@H](Cc1ccccc1)C(=O)N[C@@H](CCCN)C(=O)N[C@@H](Cc1c[nH]c2ccccc12)C(=O)N[C@@H](CCCN)C(=O)N[C@@H](Cc1ccccc1)C(=O)N[C@@H](CCC(=O)O)C(=O)N[C@@H](CCC(N)=O)C(=O)N[C@@H](CCC(N)=O)C(N)=O [Peptide P11-8, CH3CO-Q-Q-R-F-O-W-O-F-E-Q-Q-NH2] (Ac-QQRF[Orn]W[Orn]FEQQ-NH2) only.
Result: 140-320 nm

Task: Item CC(=O)N[C@@H](CC(N)=O)C(=O)N[C@@H](CC(N)=O)C(=O)N[C@@H](CCCNC(=N)N)C(=O)N[C@@H](Cc1ccccc1)C(=O)N[C@@H](CCCN)C(=O)N[C@@H](Cc1c[nH]c2ccccc12)C(=O)N[C@@H](CCCN)C(=O)N[C@@H](Cc1ccccc1)C(=O)N[C@@H](CCC(=O)O)C(=O)N[C@@H](CC(N)=O)C(=O)N[C@@H](CC(N)=O)C(N)=O [Peptide P11-16, CH3CO-N-N-R-F-O-W-O-F-E-N-N-NH2] (Ac-NNRF[Orn]W[Orn]FENN-NH2) : provide h, twist pitch
Result: 109-220 nm

Task: Answer with reported h, twist pitch of CC(=O)N[C@@H](CO)C(=O)N[C@@H](CO)C(=O)N[C@@H](CCCNC(=N)N)C(=O)N[C@@H](Cc1ccccc1)C(=O)N[C@@H](CCCN)C(=O)N[C@@H](Cc1c[nH]c2ccccc12)C(=O)N[C@@H](CCCN)C(=O)N[C@@H](Cc1ccccc1)C(=O)N[C@@H](CCC(=O)O)C(=O)N[C@@H](CO)C(=O)N[C@@H](CO)C(N)=O [Peptide P11-12, CH3CO-S-S-R-F-O-W-O-F-E-S-S-NH2] (Ac-SSRF[Orn]W[Orn]FESS-NH2)
Result: 139-220 nm
